All values here come from paper PMC11477965.

Here the recorded CC50 at 24 h is given for each entry.
- assay-method-text: SRB cytotoxicity assay in LX-2 cells
- Format: cell-based, human
- run-parameters: human, LX-2 cells, SRB assay, 24 h; read-out: CC50, cytotoxic concentration required to inhibit the growth of LX-2 cells by 50%
Where a SMILES comes first, the peptide text is derived from it.
The figure you give is taken to be in µM; do not add the unit.

-- ask Please give the documented CC50 at 24 h of CC[C@@H]1C2C[C@H](O)CC[C@]2(C)C2CC[C@@]3(C)C(CCC3[C@H](C)CCC(=O)N[C@@H](CC(=O)O)C(=O)O)C2[C@@H]1O (some centres unmarked) [Compound 9]
-- reply 351

-- ask Give the measured CC50 at 24 h for C[C@H](N)C(=O)N[C@@H](CC(=O)O)C(=O)O [Compound 8a, L-alanyl-L-aspartic acid] (H-Ala-Asp-OH)
-- reply 13900

-- ask Using the record for CC(C)(C)OC(=O)C[C@H](NC(=O)OCC1c2ccccc2-c2ccccc21)C(=O)NCCO [Compound 3] , state its measured CC50 at 24 h.
-- reply 660

-- ask Kindly indicate its recorded CC50 at 24 h. Item: COC(=O)[C@H]1C[C@H](Oc2cc(Cl)nn3c(-c4ccc(OC)c(OC)c4)cnc23)CN1C(=O)OC(C)(C)C [Compound 41]
-- reply 510

-- ask State its CC50 at 24 h for this compound: COc1ccc(-c2cnc3c(O[C@@H]4CN[C@@H](C(=O)O)C4)cc(C)nn23)cc1OC [Compound 45]
-- reply 632
